# TEST_TARGET: serine acetyltransferase of cysteine-prototrophic revertant (Escherichia coli, UniProt P0A9D4, M256I)
# Sequence (P0A9D4 whole entry M256I): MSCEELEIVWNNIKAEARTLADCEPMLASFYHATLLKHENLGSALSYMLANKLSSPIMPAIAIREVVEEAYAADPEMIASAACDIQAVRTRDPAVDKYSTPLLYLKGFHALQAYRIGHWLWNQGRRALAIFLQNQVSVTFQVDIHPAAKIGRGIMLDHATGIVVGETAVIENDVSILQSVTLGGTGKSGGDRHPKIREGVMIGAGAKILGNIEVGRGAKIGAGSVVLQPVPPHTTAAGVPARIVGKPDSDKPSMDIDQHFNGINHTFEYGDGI
# METHOD_NOTES: Literature: end product inhibition of serine acetyltransferase from a cysteine-prototrophic revertant
pKi: −log10 of the molar value.
PROPERTY_NAME: pKi

Entry under review: "N[C@@H](CS)C(=O)O" . Reported pKi?
~5.00
